# target.under.test: c-Src kinase domain (Homo sapiens)
# assay.name: pTyr-Var library bacterial peptide display kinase screen (enrichment scores);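 further: log2 fold change in enrichment of variant over reference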
# Assay type: biochemical
# condition: sheet "Src"; variant peptide versus its reference peptide in the pTyr-Var library screen
Collected Screen values appear next to each entry.

sequence | Screen
FIIFIYAMKKK [SLCO1B1_Y645_L643F_YF] | 2.408

Query :: Query (sequence): LFLALYTGLVR [PIGB_Y402_H407R] ; field requested: Screen
Result :: -0.3512

Query :: # input sequence: ACEVLYNIVFM [NCF2_Y125_A128V] ; wanted: its Screen
Result :: 0.004351

Query :: Fill blank: measured Screen of the sequence PLDGEYSTLQI [TP53_Y327_F328S] is ____.
Result :: -0.3767

Query :: Query: Screen; subject: DGQFVYKLTDF [TBK1_Y153_S151F]
Result :: -0.3973

Query :: Return reported Screen; argument: RQNNSYTCFTA [SLC20A2_Y386_R382Q_YF]
Result :: -1.243

Query :: Dear colleague, I am looking for the recorded Screen of the following sequence: PLDGEYVTLQI [TP53_Y327_F328V]
Result :: -2.053

====

Screen (variant relative to reference peptide, measured in the pTyr-Var library screen) by entry:
# System: EPHB1 kinase domain
# assay.name: pTyr-Var library bacterial peptide display kinase screen (enrichment scores)
# Assay type: biochemical, human
# condition: sheet "EPHB1"; variant seq vs reference seq; bacterial peptide display enrichment
Please reply with the number alone, leaving off any unit.

sequence | observed
HRGHLYLAIEF [TEK_Y899_Y897H_YF] | 0.9917
PTKNDYWAMPA [WWOX_Y287_L291P] | 3.488
GESKDYALHAG [SVIL_Y185_V189A] | -2.109
DASENYFVMDS [TMEM240_Y77_T80M] | 2.244
NREGVYRVFAP [TGFBI_Y537_T538R] | -2.691

Query :: Please give the measured Screen (variant relative to reference peptide, measured in the pTyr-Var library screen) for this sequence: KKFPDYIQSAM [SGMS2_Y59_I62S_YF]
Result :: -3.574

Query :: Record request: Screen (variant relative to reference peptide, measured in the pTyr-Var library screen) value, item HVKHNYECLVF [XRCC5_Y416_I412V_YF]
Result :: -0.4743

Query :: Quick one: Screen (variant relative to reference peptide, measured in the pTyr-Var library screen) for DNEAIYDICRC [TUBA4A_Y210_R215C] ?
Result :: -1.159

Query :: Returns the measured Screen (variant relative to reference peptide, measured in the pTyr-Var library screen) for the input sequence. Input: RRIFSYRGHLW [VHL_Y112_H110Y_YF]
Result :: -1.652

Query :: Name the recorded Screen (variant relative to reference peptide, measured in the pTyr-Var library screen) for LLDGEYFTLQI [TP53_Y327_P322L] .
Result :: 0.245

====

# Test system: Fer kinase domain
# assay.name: pTyr-Var library bacterial peptide display kinase screen (enrichment scores);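 further: log2 fold change in enrichment of variant over reference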
# Assay type: biochemical, mouse
# condition: sheet "Fer"; value of the variant peptide against its reference peptide in the pTyr-Var library screen with Fer
Label scheme, based on Screen: bottom end: < -0.3; midrange: ≥ -0.3 and < 1; top end: ≥ 1

Solved cases below.
sequence | target.under.test | label.value
DSNLIYSQIWS [FCRL3_Y662_P660L] | Fer kinase domain | bottom end
SPPILYSFFLN [FCRL6_Y239_D244N_YF] | Fer kinase domain | top end
LGQRIYQFIRS [DYRK1B_Y271_Q275R_YF] | Fer kinase domain | bottom end
GQDLLYEDEDL [PACS1_Y303_F302L] | Fer kinase domain | midrange
LPEENYQVLCF [ARHGAP1_Y365_R369C] | Fer kinase domain | top end
HFPDVYAWEQL [ALX3_Y181_R183W_YF] | Fer kinase domain | top end

Query :: Exam item: assign LRWREYQRQDF [PRKRIP1_Y90_R87W_YF] to the correct category.
Result :: top end

Query :: Could you place RGDCMYASLLG [AR_Y269_P271S] in its proper category? Many thanks.
Result :: bottom end

Query :: Field: class (Screen) — entry: RAILLYEFVGK [NATD1_Y45_V42I_YF]
Result :: top end
